This collection of values is drawn from patent US9371320B2.

We begin with a simple list: items and their reported inhibition at 1 µM.
- targetOfAssay: JAK1 (Homo sapiens, UniProt P23458)
- Construct: purchased Invitrogen
- Sequence (P23458 whole entry): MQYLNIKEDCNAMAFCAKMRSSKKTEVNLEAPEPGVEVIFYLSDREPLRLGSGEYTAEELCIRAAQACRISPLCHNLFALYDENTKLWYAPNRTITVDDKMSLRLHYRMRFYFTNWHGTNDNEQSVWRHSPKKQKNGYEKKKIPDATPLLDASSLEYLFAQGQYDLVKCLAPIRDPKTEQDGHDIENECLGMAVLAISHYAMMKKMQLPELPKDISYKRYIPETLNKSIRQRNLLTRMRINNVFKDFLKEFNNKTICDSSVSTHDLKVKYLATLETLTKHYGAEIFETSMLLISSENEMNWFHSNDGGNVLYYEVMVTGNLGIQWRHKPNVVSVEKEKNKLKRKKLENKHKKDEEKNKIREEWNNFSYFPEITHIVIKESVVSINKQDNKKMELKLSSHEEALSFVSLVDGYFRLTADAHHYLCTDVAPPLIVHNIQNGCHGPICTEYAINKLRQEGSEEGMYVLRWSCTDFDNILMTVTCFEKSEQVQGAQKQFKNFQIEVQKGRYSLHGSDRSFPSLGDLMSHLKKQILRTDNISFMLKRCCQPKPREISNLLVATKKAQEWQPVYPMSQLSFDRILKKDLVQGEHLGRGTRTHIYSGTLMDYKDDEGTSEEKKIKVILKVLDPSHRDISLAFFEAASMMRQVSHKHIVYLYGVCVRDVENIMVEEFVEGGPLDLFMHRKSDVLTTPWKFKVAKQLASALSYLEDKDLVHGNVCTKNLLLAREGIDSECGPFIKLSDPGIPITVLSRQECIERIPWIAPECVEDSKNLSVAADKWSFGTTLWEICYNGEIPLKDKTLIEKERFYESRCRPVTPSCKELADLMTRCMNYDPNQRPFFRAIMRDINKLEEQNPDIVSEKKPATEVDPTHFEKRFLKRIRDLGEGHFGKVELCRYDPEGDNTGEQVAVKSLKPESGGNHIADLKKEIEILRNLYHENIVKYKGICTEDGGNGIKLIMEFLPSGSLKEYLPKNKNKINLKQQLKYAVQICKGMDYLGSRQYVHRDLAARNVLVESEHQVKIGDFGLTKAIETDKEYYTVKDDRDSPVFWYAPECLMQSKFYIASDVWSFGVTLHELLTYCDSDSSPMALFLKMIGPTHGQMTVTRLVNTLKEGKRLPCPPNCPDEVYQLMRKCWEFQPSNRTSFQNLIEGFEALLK
- assayName: JAK1 enzyme inhibition test (LANCE method)
- Format: biochemical
- conditionNotes: test compound 1 μM; read-out: Inhibitory rate (%) JAK1 1 μM

>  <smilesEntry>
NC(=O)Cc1ccc(-c2nn(-c3c(F)cccc3F)c3cc[nH]c(=O)c23)cc1

>  <targetOfAssay>
JAK1 (Homo sapiens, UniProt P23458)

>  <inhibition at 1 µM (%)>
97

$$$$
>  <smilesEntry>
NC(=O)c1cc(-c2nn(C3CCC4(CC3)OCCO4)c3cc[nH]c(=O)c23)cs1

>  <targetOfAssay>
JAK1 (Homo sapiens, UniProt P23458)

>  <inhibition at 1 µM (%)>
99

$$$$
>  <smilesEntry>
COC(=O)c1cc(-c2cn(C3CCCC3)c3c(C#N)c[nH]c(=O)c23)cs1

>  <targetOfAssay>
JAK1 (Homo sapiens, UniProt P23458)

>  <inhibition at 1 µM (%)>
92

$$$$
>  <smilesEntry>
NS(=O)(=O)c1ccc(-c2nn(CC3COC3)c3cc[nH]c(=O)c23)cc1

>  <targetOfAssay>
JAK1 (Homo sapiens, UniProt P23458)

>  <inhibition at 1 µM (%)>
88

$$$$
>  <smilesEntry>
NC(=O)Cc1cc(-c2nn(-c3c(F)cccc3F)c3c(Cl)c[nH]c(=O)c23)cs1

>  <targetOfAssay>
JAK1 (Homo sapiens, UniProt P23458)

>  <inhibition at 1 µM (%)>
98

$$$$
>  <smilesEntry>
N#Cc1c[nH]c(=O)c2c(-c3cccc(N4CCOCC4)c3)cn(C3CCCC3)c12

>  <targetOfAssay>
JAK1 (Homo sapiens, UniProt P23458)

>  <inhibition at 1 µM (%)>
17

$$$$
>  <smilesEntry>
Cc1ccccc1-c1cn(-c2csc(C(N)=O)c2)c2c(=O)[nH]cc(C#N)c12

>  <targetOfAssay>
JAK1 (Homo sapiens, UniProt P23458)

>  <inhibition at 1 µM (%)>
67

$$$$
>  <smilesEntry>
Cn1cc(NC(=O)c2cc(-c3nn(-c4c(F)cccc4F)c4c(Cl)c[nH]c(=O)c34)cs2)cn1

>  <targetOfAssay>
JAK1 (Homo sapiens, UniProt P23458)

>  <inhibition at 1 µM (%)>
98

$$$$
>  <smilesEntry>
O=c1[nH]ccc2c1c(-c1ccc3c(c1)OCO3)nn2C1CCCC1

>  <targetOfAssay>
JAK1 (Homo sapiens, UniProt P23458)

>  <inhibition at 1 µM (%)>
85

$$$$
>  <smilesEntry>
NC(=O)Cc1cccc(-c2nn(C3CCCC3)c3cc[nH]c(=O)c23)c1

>  <targetOfAssay>
JAK1 (Homo sapiens, UniProt P23458)

>  <inhibition at 1 µM (%)>
91

$$$$
>  <smilesEntry>
COCC(=O)N1CCN(c2ccc(-c3nn(-c4c(F)cccc4F)c4cc[nH]c(=O)c34)cc2)CC1

>  <targetOfAssay>
JAK1 (Homo sapiens, UniProt P23458)

>  <inhibition at 1 µM (%)>
95

$$$$

* * *

- targetOfAssay: JAK1 (Homo sapiens, UniProt P23458)
- Construct: purchased Invitrogen
- assayName: JAK1 enzyme inhibition test (LANCE method)
- Format: biochemical
- conditionNotes: test compound 10 μM (Ex. 182-220), beside Tyk2 1 μM; read-out: Inhibitory rate (%) JAK1 10 μM

>  <compound>
O=C1CCCN1c1ccc(-c2nn(-c3c(F)cccc3F)c3c(Cl)c[nH]c(=O)c23)cc1 [Example 195]

>  <targetOfAssay>
JAK1 (Homo sapiens, UniProt P23458)

>  <inhibition at 10 µM, %>
79

$$$$
>  <compound>
O=C1CCC(=O)N1Cc1ccc(-c2nn(-c3c(F)cccc3F)c3c(Cl)c[nH]c(=O)c23)cc1 [Example 219]

>  <targetOfAssay>
JAK1 (Homo sapiens, UniProt P23458)

>  <inhibition at 10 µM, %>
82

$$$$
>  <compound>
CC1(O)CCC(n2nc(-c3ccc(S(N)(=O)=O)cc3)c3c(=O)[nH]ccc32)CC1 (stereo not drawn) [Example 196]

>  <targetOfAssay>
JAK1 (Homo sapiens, UniProt P23458)

>  <inhibition at 10 µM, %>
100

$$$$
>  <compound>
NS(=O)(=O)c1ccc(-c2nn(-c3ccccc3Cl)c3cc[nH]c(=O)c23)cc1 [Example 214]

>  <targetOfAssay>
JAK1 (Homo sapiens, UniProt P23458)

>  <inhibition at 10 µM, %>
99

$$$$
>  <compound>
N#Cc1cccc(-c2nn(C3CCCC3)c3cc[nH]c(=O)c23)c1 [Example 202]

>  <targetOfAssay>
JAK1 (Homo sapiens, UniProt P23458)

>  <inhibition at 10 µM, %>
80

$$$$
>  <compound>
NC(=O)c1cc(-c2nn([C@H]3CC[C@H](O)CC3)c3cc[nH]c(=O)c23)cs1 [Example 183]

>  <targetOfAssay>
JAK1 (Homo sapiens, UniProt P23458)

>  <inhibition at 10 µM, %>
100

$$$$
>  <compound>
CC1(O)CCC(n2nc(-c3csc(C(N)=O)c3)c3c(=O)[nH]ccc32)CC1 (stereo not drawn) [Example 198]

>  <targetOfAssay>
JAK1 (Homo sapiens, UniProt P23458)

>  <inhibition at 10 µM, %>
100

$$$$
>  <compound>
Cc1ccccc1-n1nc(-c2ccc(S(N)(=O)=O)cc2)c2c(=O)[nH]ccc21 [Example 211]

>  <targetOfAssay>
JAK1 (Homo sapiens, UniProt P23458)

>  <inhibition at 10 µM, %>
99

$$$$
>  <compound>
O=c1[nH]cc(Cl)c2c1c(-c1csc(CN3CCOCC3)c1)nn2-c1c(F)cccc1F [Example 203]

>  <targetOfAssay>
JAK1 (Homo sapiens, UniProt P23458)

>  <inhibition at 10 µM, %>
81

$$$$
